- method: Plasma protein binding in rat at 3 mg/kg, po
- Assay type: ADME, organism-based
- Parameters: dose 3 mg/kg, route oral
- assay-setup: read-out: PPB (converted)
recorded-metric: fraction unbound

Would you please look over these solved cases?
1. CN(C)C(=O)Cc1ccc(-n2nc(C(F)(F)F)c3c2CCCC3)cc1	0.022
2. O=C1CCCN1Cc1ccc(-n2nc(C(F)(F)F)c3c2CCCC3)cc1	0.016
3. O=C1CCCN1Cc1ccc(-n2nc(C(F)(F)F)c3c2CCCC3)cc1F	0.011
4. O=C(Cc1ccc(-n2nc(C(F)(F)F)c3c2CCCC3)cc1F)N1CCCC1	0.002
5. O=C(c1ccc(-n2nc(C(F)(F)F)c3c2COCC3)cc1)N1CCCC1	0.067

1: O=S1(=O)CCCN1Cc1ccc(-n2nc(C(F)(F)F)c3c2CCCC3)cc1
2: O=C1CCCN1Cc1ccc(-n2nc(C(F)(F)F)c3c2COCC3)cc1
Query: Hello, I am sorting some records. Could you say if 1 or 2 has the smaller fraction unbound value? To answer, give the label that identifies your chosen option.
Response: 1
(1: 0.032, 2: 0.057)

a: CN1CCc2c(C(F)(F)F)nn(-c3ccc(CN4CCCC4=O)cc3)c2C1
b: O=C(c1ccc(-n2nc(C(F)(F)F)c3c2CCCC3)cc1)N1CCCC1
Query: // task: argmin of fraction unbound over [ a , b ] Record your answer as the label of the chosen record.
Response: b
(b: 0.01, a: 0.142)

---

- target-system: Cytochrome P450 3A4 (Homo sapiens, UniProt P08684)
- Sequence (P08684 whole entry): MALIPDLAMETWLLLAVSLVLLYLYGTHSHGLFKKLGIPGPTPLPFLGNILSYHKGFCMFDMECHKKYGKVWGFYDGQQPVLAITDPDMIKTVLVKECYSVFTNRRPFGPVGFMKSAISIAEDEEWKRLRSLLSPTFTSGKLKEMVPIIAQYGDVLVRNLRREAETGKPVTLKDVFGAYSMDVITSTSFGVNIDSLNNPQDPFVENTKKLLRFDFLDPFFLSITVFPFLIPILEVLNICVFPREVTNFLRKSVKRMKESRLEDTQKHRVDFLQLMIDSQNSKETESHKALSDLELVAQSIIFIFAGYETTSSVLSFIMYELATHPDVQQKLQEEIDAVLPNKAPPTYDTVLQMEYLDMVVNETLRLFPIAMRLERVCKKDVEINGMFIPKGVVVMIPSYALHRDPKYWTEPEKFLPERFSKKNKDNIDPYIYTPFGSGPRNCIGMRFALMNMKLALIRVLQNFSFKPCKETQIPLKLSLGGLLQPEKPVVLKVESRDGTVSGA
recorded-metric: IC50

1. O=C(c1ccc(-n2nc(C(F)(F)F)c3c2COCC3)cc1)N1CCCC1	> 10 µM
2. O=C(c1ccc(-n2nc(C(F)(F)F)c3c2CCOC3)cc1)N1CCCC1	> 10 µM
3. O=C1CCCN1Cc1ccc(-n2nc(C(F)(F)F)c3c2COCC3)cc1	> 10 µM

Lab note: next molecule to report on.
Query: Please report IC50 for the following molecule: O=C1CCCN1Cc1ccc(-n2nc(C(F)(F)F)c3c2CCOC3)cc1
Response: > 8 µM

---

pIC50: −log10 of the molar value.
Let's go through some pIC50 measurements on Cytochrome P450 2D6 (Homo sapiens, UniProt P10635) together.
Sequence (P10635 whole entry): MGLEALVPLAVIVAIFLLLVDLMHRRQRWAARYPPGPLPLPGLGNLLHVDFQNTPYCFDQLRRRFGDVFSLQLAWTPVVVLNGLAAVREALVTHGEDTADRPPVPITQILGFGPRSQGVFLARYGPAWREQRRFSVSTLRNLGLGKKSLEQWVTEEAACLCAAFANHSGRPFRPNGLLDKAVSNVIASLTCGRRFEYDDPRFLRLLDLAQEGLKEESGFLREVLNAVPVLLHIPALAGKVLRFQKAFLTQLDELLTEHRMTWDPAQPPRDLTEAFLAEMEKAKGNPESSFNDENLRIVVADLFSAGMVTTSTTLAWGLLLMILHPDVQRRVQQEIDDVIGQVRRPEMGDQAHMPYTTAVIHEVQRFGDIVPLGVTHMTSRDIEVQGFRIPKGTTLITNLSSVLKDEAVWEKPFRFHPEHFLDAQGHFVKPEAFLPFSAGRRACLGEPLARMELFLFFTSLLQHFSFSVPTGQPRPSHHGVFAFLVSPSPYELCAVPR

Some solved entries appear below for comparison.
1) O=C(c1ccc(-n2nc(C(F)(F)F)c3c2CCOC3)cc1)N1CCCC1	< 5.00
2) O=C(c1ccc(-n2nc(C(F)(F)F)c3c2CCCC3)cc1)N1CCCC1	5.22
3) O=C1CCCN1Cc1ccc(-n2nc(C(F)(F)F)c3c2COCC3)cc1	< 5.00

Please examine the following record next.
Query: Give pIC50; test system Cytochrome P450 2D6 (Homo sapiens, UniProt P10635); compound CC(=O)Cc1ccc(-n2nc(C(F)(F)F)c3c2CCCC3)cc1
Response: ≥ 6.00

---

- target-system: Glutamate receptor 2 (Homo sapiens, UniProt P42262)
- Sequence (P42262 whole entry, canonical isoform): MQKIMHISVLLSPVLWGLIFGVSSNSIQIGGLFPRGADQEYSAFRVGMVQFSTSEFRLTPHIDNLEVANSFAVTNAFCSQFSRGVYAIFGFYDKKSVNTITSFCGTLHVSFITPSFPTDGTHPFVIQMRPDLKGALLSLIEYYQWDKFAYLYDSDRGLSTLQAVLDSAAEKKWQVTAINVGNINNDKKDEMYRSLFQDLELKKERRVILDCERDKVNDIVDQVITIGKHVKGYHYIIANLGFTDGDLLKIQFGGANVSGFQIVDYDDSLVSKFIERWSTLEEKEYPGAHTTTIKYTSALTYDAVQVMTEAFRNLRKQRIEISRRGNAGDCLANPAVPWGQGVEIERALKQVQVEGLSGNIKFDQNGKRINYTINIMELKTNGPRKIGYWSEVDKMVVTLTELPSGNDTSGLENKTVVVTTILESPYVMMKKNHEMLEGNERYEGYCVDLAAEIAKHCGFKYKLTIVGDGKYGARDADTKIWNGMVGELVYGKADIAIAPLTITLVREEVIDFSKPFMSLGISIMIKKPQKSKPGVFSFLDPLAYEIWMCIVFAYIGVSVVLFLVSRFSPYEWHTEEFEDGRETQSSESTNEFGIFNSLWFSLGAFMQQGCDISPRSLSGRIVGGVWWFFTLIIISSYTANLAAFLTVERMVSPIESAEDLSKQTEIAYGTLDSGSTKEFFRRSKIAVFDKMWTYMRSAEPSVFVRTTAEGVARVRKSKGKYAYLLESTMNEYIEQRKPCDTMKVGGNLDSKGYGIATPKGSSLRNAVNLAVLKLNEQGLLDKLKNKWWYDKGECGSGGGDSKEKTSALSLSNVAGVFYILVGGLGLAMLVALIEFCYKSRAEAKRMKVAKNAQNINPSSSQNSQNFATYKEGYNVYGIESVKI
- method: Allosteric modulation of human recombinant GluA2 receptor flip isoform expressed in HEK293 cells assessed as potentiation of glutamate-induced calcium influx by Fluo-4/FLIPR method
pEC50: −log10 of the molar value.
recorded-metric: pEC50

1. CC(=O)NCc1ccc(-n2nc(C(F)(F)F)c3c2CCCC3)cc1	5.90
2. O=C(C(F)c1ccc(-n2nc(C(F)(F)F)c3c2CCCC3)cc1)N1CCCC1 (stereo not given)	4.50
3. CN(C)S(=O)(=O)c1ccc(-n2nc(C(F)(F)F)c3c2CCCC3)cc1	4.70
4. CN(C)C(=O)c1ccc(-n2nc(C(F)(F)F)c3c2CCCC3)cc1	4.60

P: CC(=O)N(C)Cc1ccc(-n2nc(C(F)(F)F)c3c2CCCC3)cc1
Q: O=C1CCCN1Cc1c(F)cc(-n2nc(C(F)(F)F)c3c2CCOC3)cc1F
R: CN(CCc1ccccc1)C(=O)c1ccc(-n2nc(C(F)(F)F)c3c2CCCC3)cc1
S: CC(=O)Cc1ccc(-n2nc(C(F)(F)F)c3c2CCCC3)cc1
Query: Arrange by pEC50, high to low. Returns: the labels arranged in the requested order.
Response: P, S, Q, R

Every entry's value here was drawn from ChEMBL document CHEMBL1649062.
